Below, each of the compounds is paired with its reported Delta G value.
biological target: Transthyretin (Homo sapiens) (UniProt P02766); test: Binding affinity against prealbumin
Numbers only; they are read as kcal/M.

The measured Delta G associated with CCCc1c(CC)cc(C)c(Oc2c(I)c(C)c(CC(N)C(=O)O)c(C)c2I)c1C (stereo not given) reads -7.6

====

target: Transthyretin (Homo sapiens); test: Binding affinity against prealbumin
Given measured Delta G, output True if it is greater than or equal to -8 kcal/M and False if not.

Use these answered entries as a reference point.
(Q) Please check the record CCc1cc(C)c(Oc2c(I)c(C)c(CC(N)C(=O)O)c(C)c2I)c(C)c1Cl (stereo unspecified) and state if its Delta G is at or above -8 kcal/M.
(A) True

(Q) Please check the record CCc1cc(C)c(Oc2c(I)c(C)c(CC(N)C(=O)O)c(C)c2I)c(C)c1CC(C)C (stereo unspecified) and state if its Delta G is at or above -8 kcal/M.
(A) False

(Q) Please check the record CCc1c(I)c(C)c(Oc2cc(C)c(CC(N)C(=O)O)c(C)c2I)c(C)c1I (stereo unspecified) and state if its Delta G is at or above -8 kcal/M.
(A) False

(Q) Please check the record CCc1cc(C)c(Oc2c(I)c(C)c(CC(N)C(=O)O)c(C)c2I)c(C)c1I (stereo in doubt; 21) and state if its Delta G is at or above -8 kcal/M.
(A) True

Would you kindly look at the next entry?
(Q) Please check the record CCc1c(I)c(C)c(Oc2c(I)c(C)c(CC(N)C(=O)O)c(C)c2I)c(C)c1I (stereo in doubt; 2) and state if its Delta G is at or above -8 kcal/M.
(A) False
